Measured inhibition at 100 µM of individual entries
biological target: HCV-NS5b (Hepatitis C virus genotype 1b, UniProt Q9WMX2); construct: (His)6 (C); made in house; host or cells: XL-1 cells (E. coli), IPTG-inducible plasmid, nickel-NTA purification; assay: HCV-NS5b enzyme assay (incorporation of radiolabeled UTP); format: biochemical; details: read-out: % inh@100, enzyme inhibition at compound concentration of 100 uM
REPORTED_METRIC: inhibition at 100 µM

compound="CN1CCN(C(=O)c2ccc3c(c2)nc(-c2cc4ccc(-c5ccccc5-c5ccc(Cl)cc5)nc4cc2F)n3C2CCCCC2)CC1 [Compound 521]" observed_value=91.4%
compound="CN(C(=O)c1ccc2cc(-c3nc4cc(C(=O)O)ccc4n3C3CCCCC3)ccc2n1)c1ccc(Cl)cc1 [Compound 546]" observed_value=102%
compound="NC(=O)[C@H](Cc1ccccc1)NC(=O)c1ccc2cc(-c3nc4cc(C(=O)O)ccc4n3C3CCCCC3)ccc2n1 [Compound 542]" observed_value=98.6%
compound="COc1ccc(-c2ccc(Cl)cc2)c(-c2ccc3cc(-c4nc5cc(C(=O)O)ccc5n4C4CCCC4)ccc3n2)c1 [Compound 529]" observed_value=99.8%
compound="COc1ccc(-c2cccs2)c(-c2ccc3cc(-c4nc5cc(C(=O)O)ccc5n4C4CCCCC4)ccc3n2)c1 [Compound 470]" observed_value=99.4%
compound="O=C(O)c1ccc2c(c1)nc(-c1ccc3nc(-c4ccccc4)cc(Nc4ccccc4)c3c1)n2C1CCCCC1 [Compound 433]" observed_value=100%
compound="COc1ccc2occ(-c3ccc4cc(-c5nc6cc(C(=O)O)ccc6n5C5CCCCC5)ccc4n3)c2c1 [Compound 493]" observed_value=100%
